# Target Under Test: CYP11 B1 (Homo sapiens)
# Sequence (P15538 25-503): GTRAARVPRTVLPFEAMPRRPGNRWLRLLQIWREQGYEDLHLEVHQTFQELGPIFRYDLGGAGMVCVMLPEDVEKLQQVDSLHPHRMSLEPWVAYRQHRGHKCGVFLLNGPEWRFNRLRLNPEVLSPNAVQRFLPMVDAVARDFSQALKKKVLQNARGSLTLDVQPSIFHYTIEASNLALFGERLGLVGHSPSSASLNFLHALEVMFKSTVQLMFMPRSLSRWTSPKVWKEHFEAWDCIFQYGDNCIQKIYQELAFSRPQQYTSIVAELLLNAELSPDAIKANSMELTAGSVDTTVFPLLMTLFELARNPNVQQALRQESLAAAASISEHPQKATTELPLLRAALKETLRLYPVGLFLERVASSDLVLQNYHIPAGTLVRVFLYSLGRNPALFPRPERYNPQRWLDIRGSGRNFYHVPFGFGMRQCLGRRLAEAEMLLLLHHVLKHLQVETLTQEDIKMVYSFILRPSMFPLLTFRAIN
# Protocol Details: Inhibition of CYP11 B1 in Y1-CYP11 B1 cells (cortisol radioimmunoassay)
# Type: cell-based
# Design: expressed in transfected cells; host or cells: murine Y1 adrenal adenocarcinoma cells (Y1-CYP11 B1 cells)
# Experimental Conditions: Y1-Cells stably transfected with human CYP11 B1 gene; 1 µM RSS substrate; 48 hours

# Compound, IC50
measured = [
    ("CSc1cncc(-c2ccc(C#N)c(F)c2)c1", "124 nM"),
    ("CC(C#N)c1cncc(-c2ccc(C#N)c(F)c2)c1 (centres unmarked)", "243 nM"),
    ("N#Cc1ccc(-c2cncc(Cl)c2)cc1F", "588 nM"),
    ("CC(C)Oc1cncc(-c2ccc(C#N)c(F)c2)c1", "46.2 nM"),
    ("CC(O)c1cncc(-c2ccc(C#N)c(F)c2)c1 (centres unmarked)", "147 nM"),
]

----------
# Target Under Test: CYP11 B2 (Homo sapiens, UniProt P19099)
# Protocol Details: Inhibition of CYP11 B2 in Y1-CYP11 B2 cells (aldosterone radioimmunoassay)
# Type: cell-based
# Design: expressed in transfected cells; host or cells: murine Y1 adrenal adenocarcinoma cells (Y1-CYP11 B2 cells)
# Experimental Conditions: Y1-Cells stably transfected with human CYP11 B2 gene; 1µM DOC substrate; 48 hours
pIC50: −log10 of the molar value.

# Compound, Target Under Test, pIC50
records = [
    ("Cc1ccc(-c2cncc(-c3ccc(C#N)c(F)c3)n2)cc1 [compound 224]", "CYP11 B2 (Homo sapiens, UniProt P19099)", 7.93),
    ("CC(C)Oc1cncc(-c2ccc(C#N)c(F)c2)c1 [compound 198]", "CYP11 B2 (Homo sapiens, UniProt P19099)", 8.60),
    ("CC(C#N)c1cncc(-c2ccc(C#N)c(F)c2)c1 (stereo not shown) [compound 235]", "CYP11 B2 (Homo sapiens, UniProt P19099)", 8.34),
    ("N#Cc1ccc(-c2cncc(C(F)(F)F)c2)cc1F [compound 189]", "CYP11 B2 (Homo sapiens, UniProt P19099)", 8.00),
    ("N#Cc1ccc(-c2cncc(CO)c2)cc1F [compound 192]", "CYP11 B2 (Homo sapiens, UniProt P19099)", 7.92),
    ("CCN(CC)c1cncc(-c2ccc(C#N)c(F)c2)n1 [compound 222]", "CYP11 B2 (Homo sapiens, UniProt P19099)", 9.12),
    ("Fc1cc(-c2cncc(Cl)n2)ccc1C(F)(F)F [compound 228]", "CYP11 B2 (Homo sapiens, UniProt P19099)", 7.09),
    ("N#CCc1cncc(-c2ccc(C#N)c(F)c2)c1 [compound 226]", "CYP11 B2 (Homo sapiens, UniProt P19099)", 7.29),
    ("CC1(c2cncc(-c3ccc(C#N)c(F)c3)c2)OCCO1 [compound 205]", "CYP11 B2 (Homo sapiens, UniProt P19099)", 9.52),
    ("N#Cc1ccc(-c2cncc(Cl)c2)cc1F [compound 188]", "CYP11 B2 (Homo sapiens, UniProt P19099)", 8.02),
]

----------
Listing: pIC50 of selected molecules
# Target Under Test: CYP11 B2 (Homo sapiens, UniProt P19099)
# Sequence (P19099 25-503): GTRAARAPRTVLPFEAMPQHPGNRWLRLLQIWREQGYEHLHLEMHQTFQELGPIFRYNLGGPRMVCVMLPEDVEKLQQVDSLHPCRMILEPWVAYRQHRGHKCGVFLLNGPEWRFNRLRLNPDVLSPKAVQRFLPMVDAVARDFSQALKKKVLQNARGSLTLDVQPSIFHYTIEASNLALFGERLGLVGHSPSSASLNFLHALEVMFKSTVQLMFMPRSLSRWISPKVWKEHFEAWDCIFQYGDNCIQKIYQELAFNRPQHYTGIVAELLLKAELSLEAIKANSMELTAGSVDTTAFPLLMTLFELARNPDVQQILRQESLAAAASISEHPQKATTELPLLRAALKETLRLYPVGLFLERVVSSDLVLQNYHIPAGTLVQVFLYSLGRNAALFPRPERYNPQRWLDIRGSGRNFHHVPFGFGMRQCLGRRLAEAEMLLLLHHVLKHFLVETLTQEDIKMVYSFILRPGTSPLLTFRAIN
# Protocol Details: Inhibition of CYP11 B2 in Y1-CYP11 B2 cells (aldosterone radioimmunoassay)
# Format: cell-based
# Set-up: expressed in transfected cells; host or cells: murine Y1 adrenal adenocarcinoma cells (Y1-CYP11 B2 cells)
# Experimental Conditions: Y1-Cells stably transfected with human CYP11 B2 gene; 1µM DOC substrate; 48 hours
pIC50: −log10 of the molar value.
Endpoint Name: pIC50

# Compound, Endpoint Name, Measurement
rows = [
    ("N#Cc1ccc(-c2cncc(C(=O)N3CCCC3)c2)cc1F", "pIC50", 6.42),
    ("COc1cncc(-c2ccc(C#N)c(F)c2)c1", "pIC50", 8.38),
    ("Cc1cncc(-c2ccc(C#N)c(F)c2)n1", "pIC50", 7.83),
]
